Listing: Affinity ELISA CPE mutant ratio (1:3, pH 6.0/7.4) of selected binders
# target: T1, Ax1 protein, extracellular domain (human, UniProt P30530 26-451)
# T1 construct: extracellular domain; also called Axl; Ark
# T1 sequence (looked up): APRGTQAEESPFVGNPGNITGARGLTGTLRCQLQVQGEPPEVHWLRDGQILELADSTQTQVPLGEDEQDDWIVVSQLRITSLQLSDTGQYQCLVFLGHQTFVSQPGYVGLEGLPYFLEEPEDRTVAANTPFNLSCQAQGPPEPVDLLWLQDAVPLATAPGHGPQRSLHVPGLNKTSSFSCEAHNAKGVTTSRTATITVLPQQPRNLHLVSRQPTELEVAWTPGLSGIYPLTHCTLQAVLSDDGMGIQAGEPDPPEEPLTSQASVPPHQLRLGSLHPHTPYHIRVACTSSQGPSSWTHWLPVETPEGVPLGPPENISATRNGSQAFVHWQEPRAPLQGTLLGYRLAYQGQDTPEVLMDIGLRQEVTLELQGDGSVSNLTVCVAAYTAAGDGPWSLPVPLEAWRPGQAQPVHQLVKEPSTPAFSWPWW
# assay-comment: ELISA, mutant diluted 1:3
Respond numerically, and do not add a unit to the figure.

[
  {
    "binder": "HC-E102M (antibody, V domains shown, CPE single point mutant) VH: EVQLVQSGAEVKKPGATVKISCKVSGYSFTGHTMNWIRQPPGKGLEWIGLIKPSNGGTSYNQKFKGRVTISADKSISTAYLQWSSLKASDTAMYYCAHGHYMSYFAMDYWGQGTLVTVSS VL: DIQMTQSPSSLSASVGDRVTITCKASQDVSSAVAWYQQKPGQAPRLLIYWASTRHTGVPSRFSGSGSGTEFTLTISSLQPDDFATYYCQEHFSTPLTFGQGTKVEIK",
    "observed-value": 2.08
  },
  {
    "binder": "LC-P095A (antibody, V domains shown, CPE single point mutant) VH: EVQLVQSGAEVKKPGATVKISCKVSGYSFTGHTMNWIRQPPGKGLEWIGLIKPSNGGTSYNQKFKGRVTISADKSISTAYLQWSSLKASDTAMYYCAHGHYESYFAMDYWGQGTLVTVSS VL: DIQMTQSPSSLSASVGDRVTITCKASQDVSSAVAWYQQKPGQAPRLLIYWASTRHTGVPSRFSGSGSGTEFTLTISSLQPDDFATYYCQEHFSTALTFGQGTKVEIK",
    "observed-value": 2.52
  }
]

Turning now to a further record.
# Affinity ELISA CPE mutant ratio (1:3, pH 6.0/7.4) (binder: LC-P095W (antibody, V domains shown, CPE single point mutant) VH: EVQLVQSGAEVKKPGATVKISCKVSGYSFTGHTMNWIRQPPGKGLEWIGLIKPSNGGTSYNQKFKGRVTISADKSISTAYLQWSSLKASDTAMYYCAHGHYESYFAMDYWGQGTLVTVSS VL: DIQMTQSPSSLSASVGDRVTITCKASQDVSSAVAWYQQKPGQAPRLLIYWASTRHTGVPSRFSGSGSGTEFTLTISSLQPDDFATYYCQEHFSTWLTFGQGTKVEIK ) is 2.15
